Here, each record is paired with measured Th-227 in prostate data.
Assay: Biodistribution study in LNCaP tumor-bearing mice (Th227 counted in organs)
Assay type: in vivo, SCID mice
Conditions: 1 hr; 1500 kBq/kg
Report as a plain number; the unit % ID Th-227/g organ is understood.

{"columns": ["compound", "unit_abbrev", "Th-227 in prostate"],
 "data": [
  ["O=C([O-])CN1CCN(CC(=O)[O-])CCN(CC(=O)NCC2CCC(C(=O)NC(Cc3ccc4ccccc4c3)C(=O)NCCCCC(NC(=O)NC(CCC(=O)O)C(=O)O)C(=O)O)CC2)CCN(CC(=O)[O-])CC1.[227Th+4] (stereo not shown) [Example 1-B-227Th]", "% ID Th-227/g organ", 1.15],
  ["O=C([O-])CN1CCN(CC(=O)[O-])CCN(CC(=O)NCc2ccc(C(=O)N[C@@H](Cc3ccc4ccccc4n3)C(=O)NCCCC[C@H](NC(=O)N[C@@H](CCC(=O)O)C(=O)O)C(=O)O)nc2)CCN(CC(=O)[O-])CC1.[227Th+4] [Example 34-B-227Th]", "% ID Th-227/g organ", 0.62],
  ["O=C([O-])CN1CCN(CC(=O)[O-])CCN(CC(=O)NCC2CCC(C(=O)NC(Cc3ccc4ccccc4c3)C(=O)NCCCCC(NC(=O)NC(CCC(=O)O)C(=O)O)C(=O)O)CC2)CCN(CC(=O)[O-])CC1.[227Th+4] [Example 1-B-D-227Th]", "% ID Th-227/g organ", 2.87]
]}

Would you kindly look at the next entry?
Documented Th-227 in prostate of Cc1cc(C(=O)NCCN(CCCN(CCNC(=O)c2cc(C)n(CC(=O)O)c(=O)c2[O-])CCNC(=O)c2cc(C)n(CC(=O)NCC3CCC(C(=O)NC(Cc4cnc5ccccc5c4)C(=O)NCCCCC(NC(=O)NC(CCC(=O)O)C(=O)O)C(=O)O)CC3)c(=O)c2[O-])CCNC(=O)c2cc(C)n(CC(=O)NCC3CCC(C(=O)NC(Cc4cnc5ccccc5c4)C(=O)NCCCCC(NC(=O)NC(CCC(=O)O)C(=O)O)C(=O)O)CC3)c(=O)c2[O-])c([O-])c(=O)n1CC(=O)O.[227Th+4] (stereo not shown) [Example 22-C dimer-227Th] : 1.66

###

Target: PSMA-expressing LNCaP cells (Homo sapiens)
Construct: PSMA-expressing LNCaP cells; endogenous in cells; host or cells: LNCaP
Sequence (Q04609 whole entry): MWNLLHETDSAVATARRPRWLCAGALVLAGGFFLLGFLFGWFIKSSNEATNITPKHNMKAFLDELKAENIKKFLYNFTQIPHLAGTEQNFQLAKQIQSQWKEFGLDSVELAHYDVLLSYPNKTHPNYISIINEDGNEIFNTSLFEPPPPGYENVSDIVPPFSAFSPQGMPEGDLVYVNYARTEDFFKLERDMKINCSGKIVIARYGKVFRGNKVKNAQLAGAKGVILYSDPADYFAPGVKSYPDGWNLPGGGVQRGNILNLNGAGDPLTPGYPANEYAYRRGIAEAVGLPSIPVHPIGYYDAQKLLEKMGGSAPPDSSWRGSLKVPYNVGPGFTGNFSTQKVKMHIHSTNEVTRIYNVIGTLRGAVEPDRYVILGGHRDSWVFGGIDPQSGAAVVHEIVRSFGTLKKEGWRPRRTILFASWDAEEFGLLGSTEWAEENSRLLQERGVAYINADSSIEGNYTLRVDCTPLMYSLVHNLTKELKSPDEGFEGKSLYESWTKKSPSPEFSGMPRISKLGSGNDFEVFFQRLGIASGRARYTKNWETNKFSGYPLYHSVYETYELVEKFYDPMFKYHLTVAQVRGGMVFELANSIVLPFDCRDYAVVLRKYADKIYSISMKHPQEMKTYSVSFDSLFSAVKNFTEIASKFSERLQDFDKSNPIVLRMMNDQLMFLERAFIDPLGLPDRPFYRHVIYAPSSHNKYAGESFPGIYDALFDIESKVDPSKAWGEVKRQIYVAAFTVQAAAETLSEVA
Assay: Binding competition assay against 3H-PSMA-617 on LNCaP cells
Conditions: LNCaP cells; 10 nM 3H-PSMA-617; competing non-radiolabeled compound 10 nM; 2 h at 37° C.; triplicates
Decision: remaining activity at 0.01 µM beneath 80% gives Satisfied; remaining activity at 0.01 µM meeting or exceeding 80% gives Not satisfied.

Example results:
{"columns": ["mol_smiles", "class"],
 "data": [
  ["CNc1cc(C[C@@H](NC(=O)[C@H]2CC[C@H](CN)CC2)C(=O)NCCCC[C@H](NC(=O)N[C@@H](CCC(=O)O)C(=O)O)C(=O)O)cc2ccccc12", "Not satisfied"],
  ["NCc1ccc(C(=O)N[C@@H](Cc2cnc3ccccc3c2)C(=O)NCCCC[C@H](NC(=O)N[C@@H](CCC(=O)O)C(=O)O)C(=O)O)nc1", "Not satisfied"],
  ["NC[C@H]1CC[C@H](C(=O)N[C@@H](Cc2ccc3ncccc3c2)C(=O)NCCCC[C@H](NC(=O)N[C@@H](CCC(=O)O)C(=O)O)C(=O)O)CC1", "Satisfied"],
  ["NC[C@H]1CC[C@H](CNC(=O)N[C@@H](Cc2ccc3ccccc3c2)C(=O)NCCCC[C@H](NC(=O)N[C@@H](CCC(=O)O)C(=O)O)C(=O)O)CC1", "Not satisfied"]
]}

Now look at this one.
Input O=C(O)CC[C@H](NC(=O)N[C@@H](CCCCNC(=O)[C@@H](Cc1ccc2cccnc2c1)NC(=O)[C@H]1CC[C@H](CNC(=O)CN2CCN(CC(=O)O)CCN(CC(=O)O)CCN(CC(=O)O)CC2)CC1)C(=O)O)C(=O)O ; condition: remaining activity at 0.01 µM strictly below 80%. Does it hold?
Not satisfied

###

Molecular target: PSMA-expressing LNCaP cells (Homo sapiens)
Construct: PSMA-expressing LNCaP cells; endogenous in cells; host or cells: LNCaP
Assay: Binding competition assay against 3H-PSMA-617 on LNCaP cells
Conditions: LNCaP cells; 10 nM 3H-PSMA-617; competing non-radiolabeled compound 100 nM; 2 h at 37° C.; triplicates
Note to self: use rule met only for remaining activity at 0.1 µM readings below 40%; a reading exactly at 40% still gets rule not met.

Consider the following illustrative entries.
{"columns": ["compound", "class"],
 "data": [
  ["NCc1ccc(C(=O)N[C@@H](Cc2ccc3ccccc3c2)C(=O)NCCCC[C@H](NC(=O)N[C@@H](CCC(=O)O)C(=O)O)C(=O)O)cc1 [Example 24-A]", "rule met"],
  ["O=C(O)CC[C@H](NC(=O)N[C@@H](CCCCNC(=O)[C@@H](Cc1cnc2ccccc2c1)NC(=O)c1ccc(CNC(=O)CN2CCN(CC(=O)O)CCN(CC(=O)O)CCN(CC(=O)O)CC2)cn1)C(=O)O)C(=O)O [Example 32-B]", "rule met"],
  ["NC[C@H]1CC[C@H](C(=O)N[C@@H](Cc2ccc(O)cc2)C(=O)NCCCC[C@H](NC(=O)N[C@@H](CCC(=O)O)C(=O)O)C(=O)O)CC1 [Example 15-A]", "rule not met"],
  ["Cc1cc(C(=O)NCCN(CCCN(CCNC(=O)c2cc(C)n(CC(=O)O)c(=O)c2O)CCNC(=O)c2cc(C)n(CC(=O)NC[C@H]3CC[C@H](C(=O)N[C@@H](Cc4ccc5ccccc5n4)C(=O)NCCCC[C@H](NC(=O)N[C@@H](CCC(=O)O)C(=O)O)C(=O)O)CC3)c(=O)c2O)CCNC(=O)c2cc(C)n(CC(=O)O)c(=O)c2O)c(O)c(=O)n1CC(=O)O [Example 17-C monomer]", "rule met"],
  ["NC[C@H]1CC[C@H](C(=O)N[C@H](Cc2ccc3cnccc3c2)C(=O)NCCCC[C@H](NC(=O)N[C@@H](CCC(=O)O)C(=O)O)C(=O)O)CC1 [Example 44-A]", "rule not met"]
]}

Threshold test, remaining activity at 0.1 µM < 40%: NC[C@H]1CC[C@H](C(=O)N[C@H](Cc2ccc3c(c2)CCCO3)C(=O)NCCCC[C@H](NC(=O)N[C@@H](CCC(=O)O)C(=O)O)C(=O)O)CC1 [Example 38-A]
rule not met

# check: remaining activity at 0.1 µM < 40% for O=C(O)CC[C@H](NC(=O)N[C@@H](CCCCNC(=O)[C@H](Cc1ccc2ccccc2c1)NC(=O)[C@H]1CC[C@H](CNC(=S)Nc2ccc(CC(CN(CCNC(=O)c3ccn(CCO)c(=O)c3O)CCNC(=O)c3ccn(CCO)c(=O)c3O)CN(CCNC(=O)c3ccn(CCO)c(=O)c3O)CCNC(=O)c3ccn(CCO)c(=O)c3O)cc2)CC1)C(=O)O)C(=O)O [Example 1-F]
rule met

Strictly below 40% in remaining activity at 0.1 µM? CC(=O)NCCCC[C@H](NC(=O)[C@H]1CC[C@H](CN)CC1)C(=O)NCCCC[C@H](NC(=O)N[C@@H](CCC(=O)O)C(=O)O)C(=O)O [Example 11-A]
rule not met

Just wondering, is remaining activity at 0.1 µM of Cc1cc(C(=O)NCCN(CCCN(CCNC(=O)c2cc(C)n(CC(=O)O)c(=O)c2O)CCNC(=O)c2cc(C)n(CC(=O)NCc3ccc(C(=O)N[C@@H](Cc4ccc5ccccc5n4)C(=O)NCCCC[C@H](NC(=O)N[C@@H](CCC(=O)O)C(=O)O)C(=O)O)nc3)c(=O)c2O)CCNC(=O)c2cc(C)n(CC(=O)NCc3ccc(C(=O)NC(Cc4ccc5ccccc5n4)C(=O)NCCCC[C@H](NC(=O)N[C@@H](CCC(=O)O)C(=O)O)C(=O)O)nc3)c(=O)c2O)c(O)c(=O)n1CC(=O)O (stereo partly drawn) [34-C dimer] below 40%?
rule met

###

Consider the following molecules and their measured Th-227 in small intestine readings.
Test: Biodistribution study in LNCaP tumor-bearing mice (Th227 counted in organs)
Format: in vivo, SCID mice
Details: 24 h; 1500 kBq/kg
Unit % ID Th-227/g organ implied. Number only.

{"columns": ["molecule", "unit_abbrev", "Th-227 in small intestine"],
 "data": [
  ["Cc1cc(C(=O)NCCN(CCCN(CCNC(=O)c2cc(C)n(CC(=O)O)c(=O)c2[O-])CCNC(=O)c2cc(C)n(CC(=O)NCC3CCC(C(=O)NC(Cc4cnc5ccccc5c4)C(=O)NCCCCC(NC(=O)NC(CCC(=O)O)C(=O)O)C(=O)O)CC3)c(=O)c2[O-])CCNC(=O)c2cc(C)n(CC(=O)NCC3CCC(C(=O)NC(Cc4cnc5ccccc5c4)C(=O)NCCCCC(NC(=O)NC(CCC(=O)O)C(=O)O)C(=O)O)CC3)c(=O)c2[O-])c([O-])c(=O)n1CC(=O)O.[227Th+4] (stereo not shown) [Example 22-C dimer-227Th]", "% ID Th-227/g organ", 0.10],
  ["O=C([O-])CN1CCN(CC(=O)[O-])CCN(CC(=O)NCc2ccc(C(=O)N[C@@H](Cc3ccc4ccccc4n3)C(=O)NCCCC[C@H](NC(=O)N[C@@H](CCC(=O)O)C(=O)O)C(=O)O)nc2)CCN(CC(=O)[O-])CC1.[227Th+4] [Example 34-B-227Th]", "% ID Th-227/g organ", 0.08],
  ["O=C([O-])CN1CCN(CC(=O)[O-])CCN(CC(=O)NCC2CCC(C(=O)NC(Cc3ccc4ccccc4c3)C(=O)NCCCCC(NC(=O)NC(CCC(=O)O)C(=O)O)C(=O)O)CC2)CCN(CC(=O)[O-])CC1.[227Th+4] (stereo not shown) [Example 1-B-227Th]", "% ID Th-227/g organ", 0.23]
]}

Please look at the following molecule next.
Memo: O=C([O-])CN1CCN(CC(=O)[O-])CCN(CC(=O)NCC2CCC(C(=O)NC(Cc3ccc4ccccc4c3)C(=O)NCCCCC(NC(=O)NC(CCC(=O)O)C(=O)O)C(=O)O)CC2)CCN(CC(=O)[O-])CC1.[227Th+4] [Example 1-B-D-227Th] , reported Th-227 in small intestine: 0.08
